# assay-name: Cell Viability - LYMP2-008 (AID 980);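 note: cells exposed to compound for 24 h at 37 °C; nearly all actives have a fitted effect of over 60% in size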
# test-context: LYMP2-008 lymphoblastoid cell viability, qHTS; series mostly up to 92.2 µM
Results filed as inconclusive are left out. The source made the active and inactive calls. Calls come from the whole dose curve; as a rule, active = well fitted cell-killing curve with a large enough effect; inconclusive = small, poorly fitted or top-dose-only effect; inactive = flat fitted curve, though single readings scatter.
Mark one answer only. Choices: 1 for active, 0 for inactive

Illustrative cases are given below, each with its answer.
{"molecule": "c1ccc(OP(Oc2ccccc2)Oc2ccccc2)cc1", "label-value": 0}
{"molecule": "C=CCc1ccc(OC)cc1", "label-value": 0}
{"molecule": "C=C(Cl)Cl", "label-value": 0}
{"molecule": "Nc1ccccc1Cl", "label-value": 0}
{"molecule": "CN=C=S", "label-value": 0}

Qu. # fetch the recorded call for CC(Cl)Cl here
Ans. 0

Qu. One more molecule: CCOc1ccc(N)cc1
Ans. 0

Qu. One more molecule: O=S1OCC2C(CO1)C1(Cl)C(Cl)=C(Cl)C2(Cl)C1(Cl)Cl (stereo not drawn)
Ans. 0

Qu. One more molecule: C/C=C/c1ccc2c(c1)OCO2
Ans. 0

Qu. One more molecule: C=CCc1ccc2c(c1)OCO2
Ans. 0
